The measurements presented in this section are drawn from ChEMBL document CHEMBL1201862.

Reported GI50 values for the following compounds.
tested on: OVCAR-4; assay: NCI tumour cell line growth inhibition, 48 h
The source made the active and inactive calls. Rule as the data show it: active = GI50 up to about 1.1 µM and inactive = higher.
quantity_kind: GI50

> print(dat)
                                    compound  system.name  quantity.kind              reading
 1                   Nc1nc(NCCCO)cc(=O)[nH]1      OVCAR-4           GI50  > 100 µM (inactive)
 2   COP1(=O)OCc2cnccc2O1 (stereo not drawn)      OVCAR-4           GI50  > 100 µM (inactive)
 3  CNC(=O)N(CCCC(NC(C)=O)C(=O)NCc1ccccc1)Cc1ccccc1 (stereo not drawn)      OVCAR-4           GI50  > 100 µM (inactive)
 4  C[C@@H]1[C@H](C)N1CC(O)Cn1ccnc1[N+](=O)[O-] (stereo partly drawn)      OVCAR-4           GI50  > 100 µM (inactive)
 5       CN(C)C(=O)Oc1ccc(C(=S)Nc2ccccc2)cc1      OVCAR-4           GI50   32.1 µM (inactive)
 6  COc1ccccc1NC(=O)C(=O)C1C(=O)Nc2ccccc2[S+]1[O-] (stereo not drawn)      OVCAR-4           GI50  > 100 µM (inactive)
 7                     Cc1cc(-c2ccc[nH]2)on1      OVCAR-4           GI50  > 100 µM (inactive)
 8  CCOC(=O)Cn1nnc2ccc(Nc3nc4ccccc4nc3C(=O)OCC)cc21      OVCAR-4           GI50  > 100 µM (inactive)
 9  CCC(c1ccc2cc(O)ccc2c1)C(C)(C)C(=O)O (stereo not drawn)      OVCAR-4           GI50  > 100 µM (inactive)
10  CC1C/C(=C\c2ccc(OC(=O)C(C)(C)C)cc2)C(=O)/C(=C/c2ccc(OC(=O)C(C)(C)C)cc2)C1 (stereo not drawn)      OVCAR-4           GI50   31.4 µM (inactive)
11  CC(NS(=O)(=O)c1ccc(Cl)cc1)C(=O)O (stereo not drawn)      OVCAR-4           GI50  > 100 µM (inactive)
12  COc1ccc(S(=O)(=O)N/N=C(\C)CN2C(=O)c3ccccc3C2=O)cc1OC      OVCAR-4           GI50  > 100 µM (inactive)
13                N/C(CCSCCSCC/C(N)=N\O)=N\O      OVCAR-4           GI50  > 100 µM (inactive)
14  [N-]=[N+]=NC1C(O)C(CO)OC1n1cnc2c(N)ncnc21 (stereo not drawn)      OVCAR-4           GI50  > 100 µM (inactive)
15                Cc1sc2[nH]c(=O)oc(=O)c2c1C      OVCAR-4           GI50   67.6 µM (inactive)
16  COc1ccc(-c2csc(-n3c(-c4ccccc4)nc4c(Br)cc(Br)cc4c3=O)n2)cc1      OVCAR-4           GI50   63.2 µM (inactive)
17            CCN(CC)/[N+]([O-])=N/OCOC(C)=O      OVCAR-4           GI50  > 100 µM (inactive)
18                    O=C1c2cscc2C(=O)C1(O)O      OVCAR-4           GI50   25.6 µM (inactive)
19  COc1ccc(/N=C2\C(=O)C3=C(OC(C)(C)CC3)c3ccccc32)cc1      OVCAR-4           GI50    0.773 µM (active)
20         Cc1[nH]c(=O)[nH]c(=O)c1N(CCF)CCCl      OVCAR-4           GI50    353 µM (inactive)
21  C#CCNC(Cc1ccccc1)C(=O)O (stereo not drawn)      OVCAR-4           GI50  > 100 µM (inactive)
22  COc1nc2c(c(=O)n1C)N[C@@H]1[C@@H](O)[C@H](O)CO[C@@H]1N2      OVCAR-4           GI50  > 100 µM (inactive)
23  Cc1cc(C)nc(NS(=O)(=O)c2ccc(NC(=O)c3cccc4cc5ccccc5nc34)cc2)n1      OVCAR-4           GI50   32.8 µM (inactive)
